- measured_on: Human Cbl-b (residues 40-426) (Homo sapiens (Human), UniProt Q13191)
- Sequence (Q13191 40-426): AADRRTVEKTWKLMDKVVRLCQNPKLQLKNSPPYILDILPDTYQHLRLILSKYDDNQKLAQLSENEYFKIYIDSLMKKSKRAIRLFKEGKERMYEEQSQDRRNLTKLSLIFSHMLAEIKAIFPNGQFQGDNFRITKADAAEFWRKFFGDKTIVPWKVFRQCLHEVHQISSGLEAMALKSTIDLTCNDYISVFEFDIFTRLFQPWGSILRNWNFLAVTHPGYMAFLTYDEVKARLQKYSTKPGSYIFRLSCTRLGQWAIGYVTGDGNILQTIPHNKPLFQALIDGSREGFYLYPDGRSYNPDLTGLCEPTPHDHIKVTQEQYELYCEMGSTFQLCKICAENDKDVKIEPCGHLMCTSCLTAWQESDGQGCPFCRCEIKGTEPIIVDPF
- assay_procedure: Cbl-b SPR assay
- Format: binding
- condition_notes: C-cbl SPR Kd vs Cbl-b SPR Kd
parameter_measured: Fold of selectivity (×)

Completed entries (count: 6):
compound | measured_on | display_unit | Fold of selectivity
C=C[C@@H](C)Nc1cc(N2Cc3c(cc(CNC4(C)CCC4)cc3C(F)(F)F)C2=O)cc([C@]2(c3nncn3C)C[C@H](OC)C2)c1 (single isomer, unassigned) [Compound 219] | Human Cbl-b (residues 40-426) (Homo sapiens (Human), UniProt Q13191) | × | 6.5
CO[C@H]1C[C@](c2cccc(N3Cc4c(cc(CNCC5CC5(F)F)cc4C(F)(F)F)C3=O)c2)(c2nncn2C)C1 (some centres unmarked) [Compound 482] | Human Cbl-b (residues 40-426) (Homo sapiens (Human), UniProt Q13191) | × | 15
Cl.Cn1cnnc1[C@]1(c2cccc(N3Cc4c(cc(CNC5(C)CCC5)cc4C(F)(F)F)C3=O)c2)C[C@@H](Cl)C1 [Compound 137] | Human Cbl-b (residues 40-426) (Homo sapiens (Human), UniProt Q13191) | × | 8.4
Cn1cnnc1[C@@H](c1cccc(N2Cc3c(cc(CNCC(C)(C)C)cc3C(F)(F)F)C2=O)c1)C1COC1 (single isomer, unassigned) [Compound 468] | Human Cbl-b (residues 40-426) (Homo sapiens (Human), UniProt Q13191) | × | 7
COC1CC([C@H](c2cccc(N3Cc4c(cc(CNC5(C)CCC5)cc4C(F)(F)F)C3=O)c2)c2nncn2C)C1 (single isomer, unassigned) [Compound 132] | Human Cbl-b (residues 40-426) (Homo sapiens (Human), UniProt Q13191) | × | 15
CO[C@H]1C[C@](c2cccc(N3Cc4c(cc(CNC5CC(C)(F)C5)cc4C(F)(F)F)C3=O)c2)(c2nncn2C)C1 (some centres unmarked) [Compound 497] | Human Cbl-b (residues 40-426) (Homo sapiens (Human), UniProt Q13191) | × | 14

a. CO[C@H]1C[C@@](c2cccc(N3Cc4c(cc([C@@H](C)NC5(C)CCC5)cc4C(F)(F)F)C3=O)c2)(c2nncn2C)C1 (single isomer, unassigned) [Compound 175]
b. CCNc1cc([C@]2(c3nncn3C)C[C@H](C)C2)cc(N2Cc3c(cc(CNC4(C)CCC4)cc3C(F)(F)F)C2=O)c1F [Compound 336]
**Q:** // returns a or b , whichever has the lower Fold of selectivity // caller expects the label of the chosen entry
**A:** b
(b: 4.1 ×, a: 6.4 ×)
